- Tested System: TLR2/6 (Homo sapiens, UniProt O60603)
- Sequence (O60603 21-784): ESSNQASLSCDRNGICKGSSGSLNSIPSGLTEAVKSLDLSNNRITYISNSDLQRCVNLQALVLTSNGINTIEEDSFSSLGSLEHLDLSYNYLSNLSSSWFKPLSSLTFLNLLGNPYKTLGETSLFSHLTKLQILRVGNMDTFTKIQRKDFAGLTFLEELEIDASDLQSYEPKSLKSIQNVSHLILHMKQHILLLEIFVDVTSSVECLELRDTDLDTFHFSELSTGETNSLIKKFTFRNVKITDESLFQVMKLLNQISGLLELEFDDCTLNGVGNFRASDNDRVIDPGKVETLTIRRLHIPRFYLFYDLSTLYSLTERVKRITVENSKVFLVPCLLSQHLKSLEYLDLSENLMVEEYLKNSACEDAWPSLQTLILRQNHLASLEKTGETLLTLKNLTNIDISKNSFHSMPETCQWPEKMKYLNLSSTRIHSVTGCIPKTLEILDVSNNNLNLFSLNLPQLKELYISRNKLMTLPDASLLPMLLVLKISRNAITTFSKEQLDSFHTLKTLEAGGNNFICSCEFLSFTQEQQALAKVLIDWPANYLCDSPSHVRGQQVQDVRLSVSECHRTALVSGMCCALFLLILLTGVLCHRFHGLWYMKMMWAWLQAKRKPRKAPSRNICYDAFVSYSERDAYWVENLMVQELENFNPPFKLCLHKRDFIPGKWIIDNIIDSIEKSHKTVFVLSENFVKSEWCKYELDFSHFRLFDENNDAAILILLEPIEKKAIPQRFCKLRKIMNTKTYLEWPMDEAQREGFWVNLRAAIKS
- Experimental Protocol: TLR2/6 (Pam2CSK4)-induced NF-κB/AP-1 SEAP reporter in HEK-Blue hTLR2 cells
- Particulars: Pam2CSK4 1 ng/mL, HEK-Blue hTLR2 cells, n=3; 95 % confidence interval in brackets
pIC50 listing for selected compounds.
Hey, just a heads up that pIC50 is the negative log base 10 of the concentration in molar.

Illustrative cases are given below, each with its answer.
• CCOC(=O)c1cccc(NC(=O)c2cc(O)cc(O)c2)c1 = 4.87
• CCOC(=O)c1ccc(CC(=O)c2c(C)cc(O)cc2O)o1 = 4.39

Exercise: Entry CCOC(=O)c1cccc(NC(=O)Cc2ccc(OC)c(OC)c2)c1 needs its pIC50 filled in; supply it.
Solution: 4.21

Exercise: Please look at this compound and report its pIC50: COC(=O)c1ccc(CC(=O)c2ccc(O)cc2O)o1
Solution: 4.37
